System: Saccharomyces cerevisiae A25803
For each record, write down the corresponding MIC.
Response body: numeric value in µg/mL, unit text excluded.

Data request: Which measured MIC value corresponds to "COc1cc(O)c2c(c1)C(=O)c1c(cc3c(c1O)-c1c(cc(C)c(C(=O)N[C@H](C)C(=O)O)c1O)[C@H](O[C@@H]1O[C@H](C)[C@H](N(C)C(=O)NS(=O)(=O)c4ccc(C)cc4)[C@H](O)[C@H]1O)[C@H]3O)C2=O" ?
Data returned: 3.2

Data request: Form field: reported MIC of "C#CCN(C)[C@@H]1[C@H](O)[C@@H](O)[C@H](O[C@H]2c3cc(C)c(C(=O)N[C@H](C)C(=O)O)c(O)c3-c3c(cc4c(c3O)C(=O)c3cc(OC)cc(O)c3C4=O)[C@@H]2O)O[C@@H]1C"
Data returned: 0.8

Data request: Which value of MIC has been reported for "COc1cc(O)c2c(c1)C(=O)c1c(cc3c(c1O)-c1c(cc(C)c(C(=O)N[C@H](C)C(=O)O)c1O)[C@H](O[C@@H]1O[C@H](C)[C@H](N(C)C(=O)CN(C)C)[C@H](O)[C@H]1O)[C@H]3O)C2=O" in the records?
Data returned: 3.2

Data request: Reported MIC, compound "COc1cc(O)c2c(c1)C(=O)c1c(cc3c(c1O)-c1c(cc(C)c(C(=O)N[C@H](C)C(=O)O)c1O)[C@H](O[C@@H]1O[C@H](C)[C@H](N(C)C(N)=O)[C@H](O)[C@H]1O)[C@H]3O)C2=O" : ____
Data returned: 1.6

###

Kindly state MIC for each of the entries shown.

Data request: MIC of COc1cc(O)c2c(c1)C(=O)c1c(cc3c(c1O)-c1c(cc(C)c(C(=O)N[C@H](C)C(=O)O)c1O)[C@H](O[C@@H]1O[C@H](C)[C@H](N(C)C(=O)CCN)[C@H](O[C@@H]4OC[C@@H](O)[C@H](O)[C@H]4O)[C@H]1O)[C@H]3O)C2=O [Ex. 11, N-(β-alanyl) pradimicin A] on Fusarium moniliforme A2284?
Data returned: > 100 µg/mL

Data request: # returns recorded MIC (system: Fusarium moniliforme A2284) for COc1cc(O)c2c(c1)C(=O)c1c(cc3c(c1O)-c1c(cc(C)c(C(=O)N[C@H](C)C(=O)O)c1O)[C@H](O[C@@H]1O[C@H](C)[C@H](N(C)C/C=C/C(=O)O)[C@H](O[C@@H]4OC[C@@H](O)[C@H](O)[C@H]4O)[C@H]1O)[C@H]3O)C2=O [Ex. 13]
Data returned: > 100 µg/mL

Data request: For the record COc1cc(O)c2c(c1)C(=O)c1c(cc3c(c1O)-c1c(cc(C)c(C(=O)N[C@H](C)C(=O)O)c1O)[C@H](O[C@@H]1O[C@H](C)[C@H](N(C)C(=O)CN(C)C)[C@H](O[C@@H]4OC[C@@H](O)[C@H](O)[C@H]4O)[C@H]1O)[C@H]3O)C2=O [Ex. 16, N-(N,N-Dimethylglycyl) pradimicin A] , what value of MIC is listed for Fusarium moniliforme A2284?
Data returned: > 50 µg/mL

Data request: Lab request: please report MIC under test system Fusarium moniliforme A2284 for COc1cc(O)c2c(c1)C(=O)c1c(cc3c(c1O)-c1c(cc(C)c(C(=O)N[C@H](C)C(=O)O)c1O)[C@H](O[C@@H]1O[C@H](C)[C@H](NCS(=O)(=O)O)[C@H](O[C@@H]4OC[C@@H](O)[C@H](O)[C@H]4O)[C@H]1O)[C@H]3O)C2=O [Ex. 7, N-(sodiosulfomethyl) pradimicin C]
Data returned: > 50 µg/mL

Data request: Give recorded MIC with Fusarium moniliforme A2284 for the following molecule: COC(=O)/C=C/CN(C)[C@@H]1[C@H](O[C@@H]2OC[C@@H](O)[C@H](O)[C@H]2O)[C@@H](O)[C@H](O[C@H]2c3cc(C)c(C(=O)N[C@H](C)C(=O)O)c(O)c3-c3c(cc4c(c3O)C(=O)c3cc(OC)cc(O)c3C4=O)[C@@H]2O)O[C@@H]1C [compound 12]
Data returned: > 25 µg/mL

Data request: # get_value(readout= MIC, system= Fusarium moniliforme A2284) for CCOC(=O)CN(C)[C@@H]1[C@H](O[C@@H]2OC[C@@H](O)[C@H](O)[C@H]2O)[C@@H](O)[C@H](O[C@H]2c3cc(C)c(C(=O)N[C@H](C)C(=O)O)c(O)c3-c3c(cc4c(c3O)C(=O)c3cc(OC)cc(O)c3C4=O)[C@@H]2O)O[C@@H]1C [Ex. 3, N-(ethoxycarbonylmethyl) pradimicin A]
Data returned: > 100 µg/mL

Data request: Recall the recorded MIC for COc1cc(O)c2c(c1)C(=O)c1c(cc3c(c1O)-c1c(cc(C)c(C(=O)N[C@H](C)C(=O)O)c1O)[C@H](O[C@@H]1O[C@H](C)[C@H](N(C)CC(=O)O)[C@H](O[C@@H]4OC[C@@H](O)[C@H](O)[C@H]4O)[C@H]1O)[C@H]3O)C2=O [Ex. 1, N-(carboxymethyl) pradimicin A] with Fusarium moniliforme A2284 and state it.
Data returned: > 100 µg/mL

###

Tested on: Trichophyton rubrum A26761
TEST_SUMMARY: In vitro antifungal activity, serial agar dilution method (Table 1a)
Assay type: cell-based
EXPERIMENTAL_PARAMETERS: A26761, pH 7, read-out: MICs, Trichophyton rubrum A26761
Would you kindly list MIC for each of these compounds?
Please reply with the bare figure in µg/mL and do not write the unit itself.

Data request: Value lookup for MIC; key = "C#CCN(C)[C@@H]1[C@H](O)[C@@H](O)[C@H](O[C@H]2c3cc(C)c(C(=O)N[C@H](C)C(=O)O)c(O)c3-c3c(cc4c(c3O)C(=O)c3cc(OC)cc(O)c3C4=O)[C@@H]2O)O[C@@H]1C"
Data returned: 25

Data request: Quick one: MIC for CCOC(=O)CN(C)[C@@H]1[C@H](O)[C@@H](O)[C@H](O[C@H]2c3cc(C)c(C(=O)N[C@H](C)C(=O)O)c(O)c3-c3c(cc4c(c3O)C(=O)c3cc(OC)cc(O)c3C4=O)[C@@H]2O)O[C@@H]1C [Ex. 6, N-(ethoxycarbonylmethyl) pradimicin B] ?
Data returned: 6.3

###

PROPERTY_MEASURED: MIC (µg/mL)
Give the value, in units of µg/mL, as a plain number.

Data request: Provide value of MIC for this record tested with Cryptococcus neoformans IAM4514: "COc1cc(O)c2c(c1)C(=O)c1c(cc3c(c1O)-c1c(cc(C)c(C(=O)N[C@H](C)C(=O)O)c1O)[C@H](O[C@@H]1O[C@H](C)[C@H](N(C)C=O)[C@H](O[C@@H]4OC[C@@H](O)[C@H](O)[C@H]4O)[C@H]1O)[C@H]3O)C2=O"
Data returned: 12.5

Data request: Form entry - test system: Cryptococcus neoformans IAM4514; read-out: MIC; molecule: "COc1cc(O)c2c(c1)C(=O)c1c(cc3c(c1O)-c1c(cc(C)c(C(=O)N[C@H](C)C(=O)O)c1O)[C@H](O[C@@H]1O[C@H](C)[C@H](N(C)C(=O)CN)[C@H](O[C@@H]4OC[C@@H](O)[C@H](O)[C@H]4O)[C@H]1O)[C@H]3O)C2=O"
Data returned: 1.6

Data request: What measured MIC is associated with CN[C@@H]1[C@H](O[C@@H]2OC[C@@H](O)[C@H](O)[C@H]2O)[C@@H](O)[C@H](O[C@H]2c3cc(C)c(C(=O)N[C@H](C)C(=O)O)c(O)c3-c3c(cc4c(c3O)C(=O)c3cc(OC)cc(O)c3C4=O)[C@@H]2O)O[C@@H]1C [Pradimicin A, reference compound] on Cryptococcus neoformans IAM4514?
Data returned: 0.8

Data request: Form field: MIC recorded for "COC(=O)/C=C/CN(C)[C@@H]1[C@H](O[C@@H]2OC[C@@H](O)[C@H](O)[C@H]2O)[C@@H](O)[C@H](O[C@H]2c3cc(C)c(C(=O)N[C@H](C)C(=O)O)c(O)c3-c3c(cc4c(c3O)C(=O)c3cc(OC)cc(O)c3C4=O)[C@@H]2O)O[C@@H]1C" with Cryptococcus neoformans IAM4514 (enter value)
Data returned: 6.3

###

Tested on: Candida albicans A9540
TEST_SUMMARY: In vitro antifungal activity, serial agar dilution method (Table 1)
Format: cell-based
EXPERIMENTAL_PARAMETERS: Candida albicans, A9540; Sabouraud dextrose agar (pH 7.0); 28°C for 40 hours
PROPERTY_MEASURED: MIC (µg/mL)
State just the number; it will be interpreted in µg/mL.

Data request: Form entry - test system: Candida albicans A9540; read-out: MIC; molecule: COc1cc(O)c2c(c1)C(=O)c1c(cc3c(c1O)-c1c(cc(C)c(C(=O)N[C@H](C)C(=O)O)c1O)[C@H](O[C@@H]1O[C@H](C)[C@H](N(C)C(=O)CN(C)C)[C@H](O[C@@H]4OC[C@@H](O)[C@H](O)[C@H]4O)[C@H]1O)[C@H]3O)C2=O [Ex. 16, N-(N,N-Dimethylglycyl) pradimicin A]
Data returned: 6.3

Data request: Record lookup: for Candida albicans A9540, what MIC belongs to CCOC(=O)CN(C)[C@@H]1[C@H](O[C@@H]2OC[C@@H](O)[C@H](O)[C@H]2O)[C@@H](O)[C@H](O[C@H]2c3cc(C)c(C(=O)N[C@H](C)C(=O)O)c(O)c3-c3c(cc4c(c3O)C(=O)c3cc(OC)cc(O)c3C4=O)[C@@H]2O)O[C@@H]1C [Ex. 3, N-(ethoxycarbonylmethyl) pradimicin A] ?
Data returned: 50

All values here come from patent EP0428132A1.
